Tested on: NCI-H322M lung
Assay: NCI-60 one-dose screen, 48 h
Details: 10 µM unless noted
About 83,000 compounds went through this panel and 20% of them were active in at least one assay; those are over-represented in the sample as a whole. The source made the active and inactive calls. How the source made its calls: active means growth percent below 10; inactive means the rest.
Possible outcomes: yes (1) (active), no (0) (inactive)

COMPOUND	ASSIGNED_LABEL
COC(=O)C(Cc1ccccc1)NC(=O)NC(=O)NC(=O)CI (stereo unspecified)	no (0)
CC(=O)O.CN1[CH-]N(Cc2ccc(C#N)cc2)c2ccccc21.[Ag+]	no (0)
Cc1ccc2nc(NC(=O)CSc3nc(Cl)c(C#N)c(-c4ccccc4)n3)sc2c1	no (0)
CC([C@H]1CCC2C3CCC4C(=O)C(NC=O)=CC[C@]4(C)C3CC[C@@]21C)N(C)C (stereo partly specified)	no (0)
CCOc1ccc2nc(SCc3nc4n(n3)S(=O)(=O)c3ccccc3N4C)sc2c1	no (0)
CC1Cc2c(ncn3c(-c4ccc(F)cc4)nnc23)N(C)c2ccccc21 (stereo unspecified)	yes (1)
O=CN1N=C(c2ccc(Nc3ccnc4cc(Cl)ccc34)cc2)CC1c1ccccc1 (stereo unspecified)	no (0)
CCOC(=O)c1cnn2c3ccccc3n(S(=O)(=O)c3ccc(OC)cc3)c12	no (0)
O=c1ccc(N=Nc2ccc([N+](=O)[O-])cc2)ccc1O	no (0)
Fc1cc(-c2nnc3n2NC(=Nc2ccc(Cl)cc2)CS3)c(Cl)cc1Cl	no (0)
CCCCCCN1C(=O)/C(=c2\sc3n(c2=O)C2C(NN=3)N(CC)C(=O)N2CC)c2ccccc21 (stereo unspecified)	no (0)
CNc1ccc(Nc2cccc(C)c2)c2c1C(=O)c1ccccc1C2=O	no (0)
O=c1c2cccc(Cl)c2sc2c(NCCCNCCO)nc3ccccc3c12	no (0)
CCOC(=O)NCCc1ccccc1	no (0)
NCCOc1ncccc1/C=C1\c2ccccc2-c2ccc(C(F)F)cc21	no (0)
COc1ccc2c(c1OC)C(=O)O[C@H]2[C@H]1c2c(cc3c(c2OC)OCO3)CCN1C	no (0)
COc1cccc(Cc2cc(-c3ccccc3)nn(CC(=O)c3ccccc3)c2=O)c1	no (0)
CCCCCCn1c(-c2ccc(C(=O)O/N=C(\N)c3ccc(OC)cc3)cc2)nc(-c2ccccc2)c1-c1ccccc1	no (0)
COc1ccc(NC2=C(Br)C(=O)C(C)=C(C)C2=O)cc1	no (0)
c1ccc(OCc2nnc(-c3ccc(Oc4ccccc4)cc3)o2)cc1	no (0)
CC(=O)N1CCN(c2ccc(OCC3CO[C@](Cn4ccnc4)(c4ccc(Cl)cc4Cl)O3)cc2)CC1 (stereo partly specified)	no (0)
O=[N+]([O-])c1ccc(Cl)c(-c2cc(CCCCO)on2)c1	no (0)
CC(=O)c1ccc(Nc2nc(C(C)=O)c(C)s2)cc1	no (0)
Cc1nc2ccccc2c(/C=C/c2ccc(Cl)cc2)c1C(=O)/C=C/c1ccc(C(F)(F)F)cc1	yes (1)
c1ccc2cc(C[n+]3ccn(CCCCCCCCCCCCn4cc[n+](Cc5ccc6ccccc6c5)c4)c3)ccc2c1	yes (1)
COc1ccc(-c2c(C(=O)NS(C)(=O)=O)n(Cc3cccc(C(F)(F)F)c3)c3ccccc23)cc1	no (0)
O=C(Cc1ccc(F)c(Cl)c1)Nc1cc(C2(C(F)(F)F)CC2)nn1Cc1ccccc1	no (0)
Cc1cccc(NCc2cn(-c3ccc(C(=O)O)cc3)nc2-c2ccc(C(=O)O)cc2)n1	no (0)
CC(C)(C)NC(=O)C(OC(=O)c1cccc(Cl)c1)c1ccc(Cl)cc1 (stereo unspecified)	no (0)
Cc1nc(NC(=O)COc2ccc(/C=C3\Cc4ccc(Cl)cc4C3=O)cc2)sc1C	no (0)
Cc1cccc2c(=O)c3c(sc12)c(NCc1ccccc1)nc1ccccc13	no (0)
O=C(Nc1c2ccccc2nc2ccccc12)c1ccccc1CN1C(=O)c2ccccc2C1=O	no (0)
CC(C)n1cnc2c(Nc3cccc(Cl)c3)nc(N[C@H]3CCCC[C@@H]3N)nc21	no (0)
COc1ccc2c(c1)c(-c1nn3cc(-c4cccs4)nc3s1)cn2C	no (0)
Cc1nc(/N=C(\N)NC(=O)Nc2ccccc2Cl)sc1C	no (0)
CCS(=O)(=O)c1ncnc2nc[nH]c12	no (0)
c1ccc2cc(C[n+]3ccn(CCCCCCn4cc[n+](Cc5ccc6ccccc6c5)c4)c3)ccc2c1	no (0)
O=C(CCCCCCSc1nc(-c2ccccc2)cc(-c2ccccc2)n1)NO	no (0)
COc1ccc(-c2cc3c4c(nc5ccccc5c4c2)CC(c2cc(OC)c(OC)c(OC)c2)O3)cc1 (stereo unspecified)	no (0)
CN1CCN(c2ccc(-c3cc4c(Nc5ccc(F)c(Cl)c5)ncnn4c3)cc2)CC1	no (0)
CCCCNC(=O)Oc1ccc(/C(=C(\C)c2ccc(Cl)cc2)c2ccc(OCCN3CCCCC3)cc2)cc1	no (0)

---

System: MCF7 breast
Assay: NCI-60 one-dose screen, 48 h (100 = growth as untreated, 0 = no growth, -100 = all killed)
Conditions: 10 µM unless noted
Compounds without any hit were thinned out: in the full panel of roughly 83,000, 20% have a hit.
# growth >= 50% gives 1.0, anything below gives 0.0

COMPOUND	ASSIGNED_LABEL
Cc1cc(=O)[nH]c(=O)n1Cc1cn(-c2c3ccccc3nc3ccccc23)nn1	0.0
CCOC(=O)c1sc2ncc(-c3ccc(OC)cc3)n2c1C	1.0
CCCCNC(=O)Oc1ccc(/C(=C(\C)c2ccc(Cl)cc2)c2ccc(OCCN3CCCCC3)cc2)cc1	0.0
COc1ccc(CN2c3ccccc3CCc3ccccc32)cc1F	0.0
COc1ccc(-c2c(C(=O)NS(C)(=O)=O)n(Cc3cccc(C(F)(F)F)c3)c3ccccc23)cc1	1.0
Cc1cccc2c(=O)c3c(sc12)c(NCc1ccccc1)nc1ccccc13	0.0
COc1cc(CCC[P+](c2ccccc2)(c2ccccc2)c2ccccc2)c(OC)c2c1OCO2	0.0
CC[C@H](C)C(=O)O[C@H]1CCC=C2C=C[C@H](C)[C@H](CC[C@@H]3CC=CC(=O)O3)[C@H]21	1.0
CCCCCCN1C(=O)/C(=c2\sc3n(c2=O)C2C(NN=3)N(CC)C(=O)N2CC)c2ccccc21 (stereo not drawn)	0.0
COc1cc(C(=O)c2cc(C)c3[nH]c4ccc(O)cc4c3c2C)cc(OC)c1OC	0.0
CCOC(=O)Cn1c(C)c(/C=N/NC(=O)c2cc3c(ccc4ccccc43)o2)c2ccccc21	0.0
O=C(CS(=O)c1oc(-c2cccs2)nc1S(=O)(=O)c1ccc(Br)cc1)c1ccccc1 (stereo not drawn)	1.0
NC[C@@H]1O[C@H](O[C@@H]2[C@@H](CO)OC(O[C@@H]3[C@@H](O)[C@H](N)C[C@H](N)[C@H]3OC3O[C@H](CN)[C@@H](O)[C@H](O)[C@H]3N)[C@@H]2O)[C@H](N)[C@@H](O)[C@@H]1O (stereo partly drawn)	1.0
N#Cc1ccc(NC(=O)c2sc3nc4c(cc3c2N)C(=O)CCC4)cc1	1.0
O=c1ccn(Cc2cn(-c3c4ccccc4nc4ccccc34)nn2)c(=O)[nH]1	0.0
CCc1cccc2c1S/C(=C/c1ccc(Cl)cc1)C2=O	1.0
C#C[C@]1(O)CC[C@H]2[C@@H]3CC=C4c5sc(Nc6cc(F)ccc6F)nc5CC[C@]4(C)[C@H]3CC[C@@]21C	0.0

---

This listing pairs compounds with measured growth.
Test system: HCC-2998 colon
Assay: NCI-60 one-dose screen, 48 h (100 = growth as untreated, 0 = no growth, -100 = all killed)
Details: 10 µM unless noted
About 83,000 compounds went through this panel and 20% of them were active in at least one assay; those are over-represented in the sample as a whole. Activity calls are given as the source filed them. The calls were made as follows: active = growth percent below 10; inactive = the rest.
MEASURE: growth

COMPOUND	MEASURE	MEASURED_VALUE
COc1ccc(-c2nc3sc(-c4ccccc4)cn3n2)cc1	growth	77.3% (inactive)
C=C1CC[C@@]2(C#N)[C@H]3[C@H](CC[C@@H]2C)[C@@H](C)C[C@@H](CC(C)(C)C#N)[C@H]13	growth	37.3% (inactive)
CCC(C)(c1cc(C(C)(C)C)c(O)c(C(C)(C)C)c1)c1cc(C(C)(C)C)c(O)c(C(C)(C)C)c1	growth	110% (inactive)
N#C/C(=C\c1ccc(F)cc1)n1nc2cccc(F)c2n1	growth	93.8% (inactive)
O=c1c2cc(F)ccc2sc2c(NCCCNCCO)nc3ccc(F)cc3c12	growth	1.69% (active)
C/C=C(\C)C(=O)N[C@H]1[C@@H](OC(C)=O)C[C@]2(C)C3CC[C@@]4(C)C(CC[C@@H]4C(C)N(C)C)C3CCC2[C@H]1O (stereo not given in full)	growth	69.2% (inactive)
CNC(C)[C@H]1CCC2C3CCC4C[C@@H](N(C)C(=O)c5ccccc5)CC[C@]4(C)C3CC[C@@]21C (stereo not given in full)	growth	18.4% (inactive)
O=C(Nc1ccc(OS(=O)(=O)c2ccc(F)cc2)cc1)c1ccc(Cl)cc1	growth	106% (inactive)
COc1nc2ccccc2cc1-c1nc2c(cnn2-c2ccc(Br)cc2)c(=O)[nH]1	growth	51.1% (inactive)
CNCCCNc1nc2ccccc2c2c(=O)c3cc(F)ccc3sc12	growth	-88.3% (active)
Fc1cc(-c2nnc3sc(-c4ccc(Cl)cc4Cl)nn23)c(Cl)cc1Cl	growth	93% (inactive)
O=C(N/N=C/[C@@H](O)[C@H](O)[C@H](O)CO)c1ccc(NC(=O)c2cccnc2)cc1	growth	117% (inactive)
O=c1c2cccc(Cl)c2sc2c(NCCCNCCO)nc3ccccc3c12	growth	-88% (active)
Oc1ccc(C#CCOc2ccccc2)cc1CNCCN(Cc1ccccn1)Cc1ccccn1	growth	28.4% (inactive)
Cc1nc2ccccc2c(/C=C/c2ccc(Cl)cc2)c1C(=O)/C=C/c1cccs1	growth	73.5% (inactive)
COc1ccc(CN2c3ccccc3Sc3ccccc32)c(F)c1	growth	61.6% (inactive)
CN(C)c1ccc2nc3ccc(=[N+](C)C)c([N+](=O)[O-])c-3sc2c1	growth	42.7% (inactive)
COc1nc2ccc(C)cc2cc1-c1nc2c(cnn2-c2ccccc2)c(=O)[nH]1	growth	96.3% (inactive)
COc1c(C2CC(=O)Nc3c2c(C)nn3-c2nc3ccccc3[nH]2)cc2c(c1OC)OCO2 (stereo not given)	growth	94.1% (inactive)
Cc1onc2c(-c3ccccc3)n[nH]c(=O)c12	growth	94.8% (inactive)
